Test system: LMC-3 cells
Experiment: MTT assay, LMC-3 cells
Assay type: cell-based
Details: read-out: IC50 values of sorafenib on HCC cells, LMC-3 cells, control
MEASURED ENDPOINT: IC50 (nM)
Numbers only, in nM.

Identify IC50 associated with the molecule `CNC(=O)c1cc(Oc2ccc(NC(=O)Nc3ccc(Cl)c(C(F)(F)F)c3)cc2)ccn1` 910

====

Tested on: HepG2 cells
Assay: MTT assay, HepG2 cells
Assay type: cell-based
Conditions: Homo sapiens, HepG2, read-out: IC50 values of sorafenib on HCC cells, HepG2 cells, siDHFR
MEASURED ENDPOINT: IC50 (nM)
Answers are plain numbers, in nM.

Identify IC50 associated with the molecule CNC(=O)c1cc(Oc2ccc(NC(=O)Nc3ccc(Cl)c(C(F)(F)F)c3)cc2)ccn1 [Sorafenib, sorafenib] 37

====

Assay: Drug metabolism rate assay
Type: in vitro ADME
Details: human, MHCC97-H cells
MEASURED ENDPOINT: half-life at 1 μmol/L (h)
One number for each entry, in h.

Identify half-life at 1 μmol/L associated with the molecule `CNC(=O)c1cc(Oc2ccc(NC(=O)Nc3ccc(Cl)c(C(F)(F)F)c3)cc2)ccn1` 18.8
